experiment: Pharmacokinetics following oral administration in male cynomolgus monkeys; type: in vivo; details: male, cynomolgus monkey, plasma, po, 50 mg/kg, PO BID, 50 mg/kg BID
Measured metric: AUC(0-t) (ng·h/mL)
Answers are plain numbers, in ng·h/mL.

Provide only the value of recorded AUC(0-t) for CNc1cc(Nc2cc(F)cc3c2OCCO3)nc2c(NC(=O)N[C@@H]3C[C@@H]3F)cnn12 [Compound 1, Form A]
76100

====

test: Pharmacokinetics following oral administration in male cynomolgus monkeys; type: in vivo; settings: male, cynomolgus monkey, plasma, po, 5 mg/kg, PO, 5 mg/kg, read-out: Tmax
Structures can show the parent of a compound that is named as a salt.
Measured metric: Tmax (h)
One number for each entry, in h.

Note down Tmax recorded for CNc1cc(Nc2cc(F)cc3c2OCCO3)nc2c(NC(=O)N[C@@H]3C[C@@H]3F)cnn12 [Compound 1 oxalate, Form 1]
4.67

Data provenance is patent US20240010654A1.
